- tested_on: human HDAC-6 (Homo sapiens)
- Construct: made in house; host or cells: insect cells (baculovirus expression system)
- Sequence (Q9UBN7 whole entry): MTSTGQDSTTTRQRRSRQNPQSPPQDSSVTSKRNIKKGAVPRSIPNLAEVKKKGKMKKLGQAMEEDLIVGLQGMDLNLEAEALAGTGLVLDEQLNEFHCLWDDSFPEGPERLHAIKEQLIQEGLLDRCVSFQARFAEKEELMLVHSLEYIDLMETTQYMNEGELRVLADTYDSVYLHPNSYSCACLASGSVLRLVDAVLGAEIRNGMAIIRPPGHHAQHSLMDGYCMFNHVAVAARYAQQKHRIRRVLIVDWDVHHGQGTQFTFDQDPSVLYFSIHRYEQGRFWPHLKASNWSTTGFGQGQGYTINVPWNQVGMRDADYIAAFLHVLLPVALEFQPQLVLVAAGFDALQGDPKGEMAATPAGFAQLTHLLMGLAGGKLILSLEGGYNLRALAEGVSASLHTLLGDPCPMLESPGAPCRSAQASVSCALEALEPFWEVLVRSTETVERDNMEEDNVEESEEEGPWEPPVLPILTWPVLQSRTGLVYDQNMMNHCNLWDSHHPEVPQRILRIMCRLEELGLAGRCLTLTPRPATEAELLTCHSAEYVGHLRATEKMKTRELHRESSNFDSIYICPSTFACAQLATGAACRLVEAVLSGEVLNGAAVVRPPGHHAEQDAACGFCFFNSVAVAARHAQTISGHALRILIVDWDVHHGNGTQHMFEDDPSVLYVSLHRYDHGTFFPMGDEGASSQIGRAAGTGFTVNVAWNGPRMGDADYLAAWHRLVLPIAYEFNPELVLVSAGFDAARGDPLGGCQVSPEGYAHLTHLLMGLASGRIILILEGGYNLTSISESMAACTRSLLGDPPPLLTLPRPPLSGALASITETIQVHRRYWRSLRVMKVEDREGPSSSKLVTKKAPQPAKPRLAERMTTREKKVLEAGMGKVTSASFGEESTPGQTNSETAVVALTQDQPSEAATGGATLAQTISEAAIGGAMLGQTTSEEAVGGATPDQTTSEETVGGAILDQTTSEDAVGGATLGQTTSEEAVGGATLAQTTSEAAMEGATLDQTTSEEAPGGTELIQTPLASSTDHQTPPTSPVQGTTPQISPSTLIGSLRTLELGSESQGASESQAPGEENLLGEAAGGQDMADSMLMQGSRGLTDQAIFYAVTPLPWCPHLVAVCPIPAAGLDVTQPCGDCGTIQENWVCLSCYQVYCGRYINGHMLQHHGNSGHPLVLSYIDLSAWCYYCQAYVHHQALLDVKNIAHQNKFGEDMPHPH
- test_summary: histone deacetylase enzyme assay, HDAC-6
- Type: biochemical
- conditions: recombinant human enzyme, [3H]-acetylated histone substrate, 2 hours; read-out: Enzyme IC50 (μM) HDAC6
attribute_measured: IC50

Requested field: IC50. Item: Nc1ccccc1NC(=O)/C=C/C#Cc1cccc(NS(=O)(=O)c2ccccc2)c1 [Compound 2]
> 30 µM

* * *

- tested_on: human HDAC-3 (Homo sapiens)
- Construct: made in house; host or cells: insect cells (baculovirus expression system)
- Sequence (O15379 whole entry): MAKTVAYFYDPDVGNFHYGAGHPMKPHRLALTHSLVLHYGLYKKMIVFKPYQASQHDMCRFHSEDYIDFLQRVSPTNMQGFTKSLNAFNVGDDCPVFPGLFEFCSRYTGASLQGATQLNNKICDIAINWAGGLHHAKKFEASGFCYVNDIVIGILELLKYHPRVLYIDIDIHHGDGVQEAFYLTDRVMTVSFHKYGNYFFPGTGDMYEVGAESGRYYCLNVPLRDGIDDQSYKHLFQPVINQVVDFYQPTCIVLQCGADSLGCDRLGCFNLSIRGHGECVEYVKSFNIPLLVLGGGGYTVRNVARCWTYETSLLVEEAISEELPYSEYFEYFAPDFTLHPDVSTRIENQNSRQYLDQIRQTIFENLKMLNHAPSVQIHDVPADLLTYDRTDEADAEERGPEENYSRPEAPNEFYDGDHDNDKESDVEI
- test_summary: histone deacetylase enzyme assay, HDAC-3
- Format: biochemical
- conditions: recombinant human enzyme, [3H]-acetylated histone substrate, 2 hours; read-out: Enzyme IC50 (μM) HDAC3
attribute_measured: IC50 (µM)
The response must be a number in µM with no trailing unit.

For the record Nc1ccccc1NC(=O)/C=C/C#Cc1cccc(NS(=O)(=O)c2ccccc2)c1 [Compound 2] , what value of IC50 is listed for human HDAC-3 (Homo sapiens)?
30
